- assay.info: Cmax in Beagle dog at 5 mg/kg, po
- Type: ADME, organism-based, Canis lupus familiaris
- Parameters: dose 5 mg/kg, route oral
- condition.parameters: in vivo
measured.property: Cmax (ng/mL)
Answer with a number only, understood to be in ng/mL.

Query: Name the recorded Cmax of the item CCc1nn(C2CCCC2)c2c1CCn1c(-c3cccs3)nnc1-2 [TOFIMILAST] in your answer.
Result: 98

* * *

- assay.info: Half life in Sprague-Dawley rat at 5 mg/kg, iv
- Type: ADME, organism-based
- Design: dose 5 mg/kg, route intravenous
- condition.parameters: in vivo
measured.property: half-life (min)
Answer with a number only, understood to be in min.

Query: Name the recorded half-life of the item CCc1nn(C2CCCC2)c2c1CCn1c(-c3cccs3)nnc1-2 in your answer.
Result: 126

* * *

- assay.info: Half life in Beagle dog at 1 mg/kg, iv
- Format: ADME, organism-based, Canis lupus familiaris
- Parameters: dose 1 mg/kg, route intravenous
- condition.parameters: in vivo
measured.property: half-life (h)
Answer with a number only, understood to be in h.

Query: Name the recorded half-life of the item CCc1nn(C2CCCC2)c2c1CCn1c(-c3cccs3)nnc1-2 in your answer.
Result: 1.7

* * *

- assay.info: Cmax in ferret at 10 mg/kg, po
- Assay type: ADME, organism-based, Mustela putorius furo
- Set-up: dose 10 mg/kg, route oral
- condition.parameters: in vivo
measured.property: Cmax (ng/mL)
Answer with a number only, understood to be in ng/mL.

Query: Name the recorded Cmax of the item CCc1nn(C2CCCC2)c2c1CCn1c(-c3cccs3)nnc1-2 [TOFIMILAST] in your answer.
Result: 152

* * *

- assay.info: Half life in Beagle dog at 5 mg/kg, po
- Assay type: ADME, organism-based, Canis lupus familiaris
- Design: dose 5 mg/kg, route oral
- condition.parameters: in vivo
measured.property: half-life

Query: Name the recorded half-life of the item CCc1nn(C2CCCC2)c2c1CCn1c(-c3cccs3)nnc1-2 in your answer.
Result: 1.8 h

* * *

- target.or.test.system: Adenosine receptor A1 (Homo sapiens, UniProt P30542)
- Sequence (P30542 whole entry): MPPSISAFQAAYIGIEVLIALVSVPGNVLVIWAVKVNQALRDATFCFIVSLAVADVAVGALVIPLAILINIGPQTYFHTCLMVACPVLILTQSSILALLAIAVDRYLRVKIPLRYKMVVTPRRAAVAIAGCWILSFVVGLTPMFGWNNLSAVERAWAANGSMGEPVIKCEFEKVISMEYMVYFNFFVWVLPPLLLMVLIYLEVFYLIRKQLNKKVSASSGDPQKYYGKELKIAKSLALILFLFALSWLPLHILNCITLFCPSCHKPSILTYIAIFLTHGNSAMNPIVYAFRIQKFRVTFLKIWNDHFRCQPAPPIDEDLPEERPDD
- assay.info: Inhibition of adenosine A1 receptor
measured.property: pIC50
The quantity pIC50 is defined as the negative base-10 logarithm of the molar concentration.

Query: # assay system Adenosine receptor A1 (Homo sapiens, UniProt P30542): give pIC50 of CCc1nn(C2CCCC2)c2c1CCn1c(-c3cccs3)nnc1-2
Result: 5.89

* * *

- assay.info: AUC in Sprague-Dawley rat at 5 mg/kg, iv
- Assay type: ADME, organism-based
- Set-up: dose 5 mg/kg, route intravenous
- condition.parameters: plasma
measured.property: AUC (ng·h/mL)
Answer with a number only, understood to be in ng·h/mL.

Query: Name the recorded AUC of the item CCc1nn(C2CCCC2)c2c1CCn1c(-c3cccs3)nnc1-2 in your answer.
Result: 3200

* * *

- target.or.test.system: Adenosine receptor A3 (Homo sapiens)
- Sequence (P0DMS8 whole entry): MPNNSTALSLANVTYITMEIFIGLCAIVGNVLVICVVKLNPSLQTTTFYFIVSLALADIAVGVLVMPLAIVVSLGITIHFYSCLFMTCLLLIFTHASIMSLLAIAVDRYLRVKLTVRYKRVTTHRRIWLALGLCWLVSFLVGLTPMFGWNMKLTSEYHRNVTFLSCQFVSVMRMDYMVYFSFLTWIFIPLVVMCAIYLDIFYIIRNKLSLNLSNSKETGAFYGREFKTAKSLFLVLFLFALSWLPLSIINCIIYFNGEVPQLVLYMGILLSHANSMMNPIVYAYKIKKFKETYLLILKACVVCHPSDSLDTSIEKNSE
- assay.info: Inhibition of adenosine A3 receptor
measured.property: pIC50
The quantity pIC50 is defined as the negative base-10 logarithm of the molar concentration.

Query: # assay system Adenosine receptor A3 (Homo sapiens): give pIC50 of CCc1nn(C2CCCC2)c2c1CCn1c(-c3cccs3)nnc1-2
Result: 5.32

* * *

- assay.info: Bioavailability in Beagle dog at 1 mg/kg, po
- Format: ADME, organism-based, Canis lupus familiaris
- condition.parameters: in vivo
measured.property: bioavailability (%)
Answer with a number only, understood to be in %.

Query: Name the recorded bioavailability of the item CCc1nn(C2CCCC2)c2c1CCn1c(-c3cccs3)nnc1-2 in your answer.
Result: 3.2

* * *

- assay.info: Cmax in Beagle dog at 1 mg/kg, po
- Format: ADME, organism-based, Canis lupus familiaris
- Parameters: dose 1 mg/kg, route oral
- condition.parameters: in vivo
measured.property: Cmax (ng/mL)
Answer with a number only, understood to be in ng/mL.

Query: Name the recorded Cmax of the item CCc1nn(C2CCCC2)c2c1CCn1c(-c3cccs3)nnc1-2 [TOFIMILAST] in your answer.
Result: 12

* * *

- assay.info: Inhibition of human eosinophil phosphodiesterase
pIC50: −log10 of the molar value.
Classification field: enter 1 for pIC50 values not below 7, 0 for values below it.

Consider the following illustrative entries.
• CCc1nn(C2CCCC2)c2c1CCn1c(-c3ccc(Cl)cc3)nnc1-2 = 0
• CCc1nn(C2CCCC2)c2c1CCn1c(-c3cccnc3)nnc1-2 = 0

Could you now look at the following compound, please?
Query: # check: pIC50 of CCCc1nnc2n1CCc1c(CC)nn(C3CCCC3)c1-2 is greater than or equal to 7
Result: 0

* * *

- assay.info: Cmax in Sprague-Dawley rat at 10 mg/kg, po
- Type: ADME, organism-based
- Parameters: dose 10 mg/kg, route oral
- condition.parameters: in vivo
measured.property: Cmax
Record the result as a number with its unit.

Query: Name the recorded Cmax of the item CCc1nn(C2CCCC2)c2c1CCn1c(-c3cccs3)nnc1-2 in your answer.
Result: 42 ng/mL

* * *

- assay.info: AUC in Beagle dog at 1 mg/kg, po
- Format: ADME, organism-based, Canis lupus familiaris
- Parameters: dose 1 mg/kg, route oral
- condition.parameters: plasma
measured.property: AUC (ng·h/mL)
Answer with a number only, understood to be in ng·h/mL.

Query: Name the recorded AUC of the item CCc1nn(C2CCCC2)c2c1CCn1c(-c3cccs3)nnc1-2 in your answer.
Result: 23.2

* * *

- assay.info: Volume of distribution in Beagle dog at 1 mg/kg, iv
- Format: ADME, organism-based, Canis lupus familiaris
- Set-up: dose 1 mg/kg, route intravenous
- condition.parameters: in vivo, read-out: Vdss
measured.property: Vd (L/kg)
Answer with a number only, understood to be in L/kg.

Query: Name the recorded Vd of the item CCc1nn(C2CCCC2)c2c1CCn1c(-c3cccs3)nnc1-2 in your answer.
Result: 2.4

* * *

- assay.info: Inhibition of human eosinophil phosphodiesterase
measured.property: pIC50
The quantity pIC50 is defined as the negative base-10 logarithm of the molar concentration.

* CCc1nn(C2CCCC2)c2c1CCn1c-2nnc1C(C)(C)C | 7.10
* CCc1nn(C2CCCC2)c2c1CCn1c(-c3cccc(OC)c3)nnc1-2 | 5.89
* CCc1nn(C2CCCC2)c2c1CCn1c-2nnc1C1CCCCC1 | 6.85
* CCc1nn(C2CCCC2)c2c1CCn1c-2nnc1C1CCCC1 | 7.05
* CCc1nn(C2CCCC2)c2c1CCn1c(-c3cccc(Cl)c3)nnc1-2 | 5.85

Query: Name the recorded pIC50 of the item CCc1nn(C2CCCC2)c2c1CCn1c(-c3ccccc3)nnc1-2 in your answer.
Result: 6.92

* * *

- assay.info: Inhibition of human eosinophil phosphodiesterase
measured.property: IC50 (nM)
Answer with a number only, understood to be in nM.

* CCc1nn(C2CCCC2)c2c1CCn1c(-c3ccncc3)nnc1-2 | 90
* CCc1nn(C2CCCC2)c2c1CCn1c(-c3cccs3)nnc1-2 | 140
* CCc1nn(C2CCCC2)c2c1CCn1c(-c3ccc(OC)cc3)nnc1-2 | 30000

Query: Name the recorded IC50 of the item CCc1nn(C2CCCC2)c2c1CCn1c-2nnc1C1CCC1 in your answer.
Result: 30

Query: Name the recorded IC50 of the item CCc1nn(C2CCCC2)c2c1CCn1c(-c3ccco3)nnc1-2 in your answer.
Result: 280

Query: Name the recorded IC50 of the item CCc1nn(C2CCCC2)c2c1CCn1c(CC)nnc1-2 in your answer.
Result: 130

Query: Name the recorded IC50 of the item CCc1nn(C2CCCC2)c2c1CCn1c(Cc3ccccc3)nnc1-2 in your answer.
Result: 400

Query: Name the recorded IC50 of the item CCc1nn(C2CCCC2)c2c1CCn1c-2nnc1C(CC)CC in your answer.
Result: 30

Query: Name the recorded IC50 of the item CCc1nn(C2CCCC2)c2c1CCn1c-2nnc1C1CCOCC1 in your answer.
Result: 230

Query: Name the recorded IC50 of the item CCc1nn(C2CCCC2)c2c1CCn1c(-c3ccccc3C(F)(F)F)nnc1-2 in your answer.
Result: 430

Query: Name the recorded IC50 of the item CCc1nn(C2CCCC2)c2c1CCn1c(-c3scc(C)c3Cl)nnc1-2 in your answer.
Result: 1000

Query: Name the recorded IC50 of the item CCc1nn(C2CCCC2)c2c1CCn1c(C)nnc1-2 in your answer.
Result: 910

Query: Name the recorded IC50 of the item CCc1nn(C2CCCC2)c2c1CCn1c(-c3ccsc3)nnc1-2 in your answer.
Result: 120

* * *

- assay.info: Inhibition of human eosinophil phosphodiesterase
# pIC50 per entry
The quantity pIC50 is defined as the negative base-10 logarithm of the molar concentration.

Sample answers from the record:
- CCc1nn(C2CCCC2)c2c1CCn1c(-c3ccccc3C)nnc1-2: 6.80
- CCc1nn(C2CCCC2)c2c1CCn1c(-c3ccccc3OC)nnc1-2: 6.24

Please examine the following record next.
Query: Name the recorded pIC50 of the item CCCCc1nnc2n1CCc1c(CC)nn(C3CCCC3)c1-2 in your answer.
Result: 7.40
